Reported IC50 values for a set of compounds
Target: DNA-PK (Homo sapiens (Human))
Assay: DNA-PK assay (biochemical), flashplate 33P-ATP kinase assay
Conditions: biochemical DNA-PK assay

Record excerpt, results attached:
Please give the measured IC50 for this compound: OC(c1cc(-c2ncnc3cc(N4CCOCC4)ccc23)ccc1Cl)c1ncnc2ccoc12 (centres unmarked) [Example 415]
3 to 7 nM

Please give the measured IC50 for this compound: COc1ccc(C(O)c2ccc(F)c(-c3ncnc4cc(N5CCOCC5)cc(F)c34)c2)nn1 (centres unmarked) [Example 256]
< 3 nM

Please give the measured IC50 for this compound: Cc1cncnc1C(O)c1cc(-c2ncnc3cc(N4CCOCC4)ccc23)ccc1Cl (centres unmarked) [Example 419]
7 to 30 nM

Please give the measured IC50 for this compound: Cc1cncnc1C(C(N)=O)c1cc(-c2ncnc3cc(N4CCOCC4)ccc23)ccc1Cl (centres unmarked) [Example 377]
3 to 7 nM

Please give the measured IC50 for this compound: OC(c1ccc(F)c(-c2ncnc3cc(N4CCOCC4)ccc23)c1)c1nccnc1I (centres unmarked)
< 3 nM

Others:
Please give the measured IC50 for this compound: Cn1c(C(C(N)=O)c2cc(-c3ncnc4cc(N5CCOCC5)ccc34)c(F)cc2Cl)cccc1=O (centres unmarked)
> 30 nM

Please give the measured IC50 for this compound: Cc1cncnc1C(C(N)=O)c1cc(-c2ncnc3cc(N4CCOCC4)ccc23)ccc1Cl (centres unmarked) [Example 378]
3 to 7 nM

Please give the measured IC50 for this compound: NC(=O)C(c1cc(-c2ncnc3cc(N4CCOCC4)ccc23)c(F)cc1Cl)c1ncccc1Cl (centres unmarked)
< 3 nM

---

Target: DNA-PK phosphorylation at serine 2056 (Homo sapiens (Human), UniProt P78527)
Experiment: DNA-PK phosphorylation at serine 2056 (cellular), bleomycin-treated HCT116 cells, ELISA
Format: cell-based
Settings: cellular; HCT116 cells, 10 μM bleomycin, six hours; read-out: IC50 pDNA-PK
Reported IC50 values for a set of molecules

Please give the measured IC50 for this molecule: O=c1ccc(C(O)c2cc(-c3ncnc4cc(N5CCOCC5)ccc34)c(F)cc2Cl)nn1C1CC1 (stereo not drawn) [Example 95]
0.5 to 5 µM

Please give the measured IC50 for this molecule: OC(c1ccc(F)c(-c2ncnc3cc(N4CCOCC4)ccc23)c1)c1cccnn1 (stereo not drawn) [Example 65]
0.5 to 5 µM

Others:
Please give the measured IC50 for this molecule: COc1nnc(C(O)c2cc(-c3ncnc4cc(N5CCOCC5)ccc34)c(F)cc2Cl)c2ccncc12 (stereo not drawn) [Example 40]
0.5 to 5 µM

Please give the measured IC50 for this molecule: NC(=O)COc1ccc(C(O)c2cc(-c3ncnc4cc(N5CCOCC5)ccc34)c(F)cc2Cl)nn1 (stereo not drawn) [Example 111]
5 to 10 µM

Please give the measured IC50 for this molecule: OC(c1cccnn1)c1cc(-c2ncnc3cc(N4CCOCC4)ccc23)c(F)cc1Cl (stereo not drawn) [Example 47]
< 0.5 µM

Please give the measured IC50 for this molecule: OC(c1ccc(F)c(-c2ncnc3cc(N4CCOCC4)ccc23)c1)c1c(F)cncc1F (stereo not drawn) [Example 1]
0.5 to 5 µM

---

Target: DNA-PK (Homo sapiens (Human), UniProt P78527)
Assay: DNA-PK assay (biochemical), flashplate 33P-ATP kinase assay
Conditions: enzymatic; 5 μM ATP
pIC50: −log10 of the molar value.
Reported pIC50 values for a set of compounds

Record excerpt, results attached:
Please give the measured pIC50 for this compound: COc1cncnc1C(O)c1ccc(F)c(-c2ncnc3cc(N4CCOCC4)ccc23)c1 (stereo not shown)
> 8.52

Please give the measured pIC50 for this compound: CC(C#N)Oc1ccc(C(O)c2cc(-c3ncnc4cc(N5CCOCC5)ccc34)c(F)cc2Cl)nn1 (single isomer, unassigned) [Example 104]
7.52 to 8.15

Please give the measured pIC50 for this compound: COc1ccc(C(O)c2cc(-c3ncnc4cc(N5CCOCC5)sc34)c(F)cc2Cl)nn1 (single isomer, unassigned) [Example 127]
8.15 to 8.52

Others:
Please give the measured pIC50 for this compound: OC(c1ccc(F)c(-c2ncnc3cc(N4CCOCC4)ccc23)c1)c1c(F)cncc1F (stereo not shown)
8.15 to 8.52

These data points were gathered from patent US9732094B2.
